# target.desc: human β1 adrenergic receptor (Homo sapiens, UniProt P08588)
# Construct: expressed in transfected cells; host or cells: CHO (Chinese hamster ovary) cells, pcDNA3
# Sequence (P08588 whole entry): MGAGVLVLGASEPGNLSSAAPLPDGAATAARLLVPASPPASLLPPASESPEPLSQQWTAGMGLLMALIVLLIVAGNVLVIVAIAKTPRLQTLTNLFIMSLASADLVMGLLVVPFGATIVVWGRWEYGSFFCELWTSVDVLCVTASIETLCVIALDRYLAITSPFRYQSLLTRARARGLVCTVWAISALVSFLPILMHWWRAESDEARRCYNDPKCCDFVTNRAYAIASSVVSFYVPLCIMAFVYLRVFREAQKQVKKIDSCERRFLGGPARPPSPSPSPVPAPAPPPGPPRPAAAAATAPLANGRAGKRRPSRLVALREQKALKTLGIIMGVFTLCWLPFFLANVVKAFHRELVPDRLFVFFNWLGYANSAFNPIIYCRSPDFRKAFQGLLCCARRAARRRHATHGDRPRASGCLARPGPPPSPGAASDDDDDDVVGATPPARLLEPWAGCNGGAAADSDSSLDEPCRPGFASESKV
# procedure.text: Test example 2-B: human β1 adrenergic receptor agonist activity
# Assay type: cell-based
# settings: 0.5 h; read-out: β1 receptor I.A.
measured.attribute: Emax (%)
Note: unit % is implicit; provide only the numeric part.

Use the examples below as a reference point.
structure.string | Emax (%)
CS(=O)(=O)Nc1cc([C@@H](O)CNCCOc2ccc3c(OC(F)F)n[nH]c3c2)ccc1Cl | 30
CS(=O)(=O)Nc1cccc([C@@H](O)CNCCOc2ccc3c(C4CC4)n[nH]c3c2)c1 | 10

Now let's try a different one.
Ask | Please report the recorded Emax for CS(=O)(=O)Nc1cccc([C@@H](O)CNCCOc2ccc3c(C4CCC4)n[nH]c3c2)c1 .
Reply | 9.9
